- assayTarget: GSK3β (Homo sapiens, UniProt P49841)
- Sequence (P49841 whole entry, species assumed): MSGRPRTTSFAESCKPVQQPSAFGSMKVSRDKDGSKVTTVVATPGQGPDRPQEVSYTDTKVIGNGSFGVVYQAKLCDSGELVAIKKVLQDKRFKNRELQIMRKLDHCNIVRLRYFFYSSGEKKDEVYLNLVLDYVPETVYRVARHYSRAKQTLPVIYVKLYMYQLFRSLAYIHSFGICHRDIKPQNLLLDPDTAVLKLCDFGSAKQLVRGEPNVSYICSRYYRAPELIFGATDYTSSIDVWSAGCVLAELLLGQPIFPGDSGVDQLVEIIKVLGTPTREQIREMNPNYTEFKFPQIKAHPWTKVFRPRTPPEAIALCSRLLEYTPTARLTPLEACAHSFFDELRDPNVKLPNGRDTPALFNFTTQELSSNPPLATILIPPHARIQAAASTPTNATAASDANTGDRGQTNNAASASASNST
- assayOverview: GSK3beta assay (SPA, biotinylated phosphorylated CREB peptide, ATP-P33)
- Format: biochemical
- appliedConditions: −log IC50 (M); given as ranges (>8; 7-8; <7); read-out: pIC50 (GSK3beta) (converted)
- Procedure: GSK3beta assays were performed at room temperature in a 100 μl reaction volume of 25 mM Tris (ph 7.4) containing 10 mM MgCl2.6H2O 1 mM DTT, 0.1 mg/ml BSA, 5% glyceol and containing 5.7 ng/μl GSK3β, 5 μM biotinylated phosphorylated CREB peptide, 1 μM APT, 0.85 μCi/ml ATP-P^33 and a suitable amount of a test compound of formula (I). After one hour, the reaction was terminated by adding 70 μl of Stop mix (0.1 mM APT, 5 mg/ml streptavidin coated PVT SPA bead pH 11.0). […]
outcomeMeasure: IC50

Worked cases, answers included:
COc1cccc(-n2nnc3cnc(Nc4cccc(NS(C)(=O)=O)c4)nc32)c1 [Compound 52] = < 1e-08 M
NS(=O)(=O)c1ccc(Nc2ncc3nnn(-c4cccc(CNC(=O)C56CC7CC(CC(C7)C5)C6)c4)c3n2)cc1 [Compound 243] = 1e-08 to 1e-07 M
N#CCc1cccc(-n2nnc3cnc(Nc4ccc(F)cc4)nc32)c1 [Compound 265] = < 1e-08 M
OCc1cccc(Nc2ncc3nnn(-c4cccc(F)c4)c3n2)c1 [Compound 31] = < 1e-08 M

Please find the next compound below.
stdin: Please indicate IC50 recorded for COCCOc1cccc(-n2nnc3cnc(Nc4ccc(C(=O)N(C)C)cc4)nc32)c1 [Compound 326]
stdout: 1e-08 to 1e-07 M

====

- assayTarget: GSK3β (Homo sapiens)
- assayOverview: GSK3beta assay (SPA, biotinylated phosphorylated CREB peptide, ATP-P33)
- Format: biochemical
- appliedConditions: −log IC50 (M); given as ranges (>8; 7-8; <7); read-out: pIC50 (GSK3beta) (converted)
# IC50 annotations

stdin: Please indicate IC50 recorded for O=C(O)CNC(=O)c1ccc(Nc2ncc3nnn(-c4cccc(CNC(=O)C56CC7CC(CC(C7)C5)C6)c4)c3n2)cc1
stdout: < 1e-08 M

stdin: Please indicate IC50 recorded for COCCOc1cccc(-n2nnc3cnc(Nc4ccc(CNC(=O)OC(C)(C)C)cc4)nc32)c1
stdout: 1e-08 to 1e-07 M

stdin: Please indicate IC50 recorded for COCc1cccc(-n2nnc3cnc(Nc4ccc(CN)cc4)nc32)c1
stdout: < 1e-08 M

stdin: Please indicate IC50 recorded for COCCOc1cccc(-n2nnc3cnc(Nc4ccc(Cl)cc4)nc32)c1
stdout: 1e-08 to 1e-07 M

stdin: Please indicate IC50 recorded for CNS(=O)(=O)c1cccc(Nc2ncc3nnn(-c4cccc(F)c4)c3n2)c1
stdout: < 1e-08 M

stdin: Please indicate IC50 recorded for OCCc1cccc(-n2nnc3cnc(Nc4ccc(F)cc4)nc32)c1
stdout: < 1e-08 M

====

- assayTarget: GSK3alpha (Homo sapiens, UniProt P49840)
- Sequence (P49840 whole entry, species assumed): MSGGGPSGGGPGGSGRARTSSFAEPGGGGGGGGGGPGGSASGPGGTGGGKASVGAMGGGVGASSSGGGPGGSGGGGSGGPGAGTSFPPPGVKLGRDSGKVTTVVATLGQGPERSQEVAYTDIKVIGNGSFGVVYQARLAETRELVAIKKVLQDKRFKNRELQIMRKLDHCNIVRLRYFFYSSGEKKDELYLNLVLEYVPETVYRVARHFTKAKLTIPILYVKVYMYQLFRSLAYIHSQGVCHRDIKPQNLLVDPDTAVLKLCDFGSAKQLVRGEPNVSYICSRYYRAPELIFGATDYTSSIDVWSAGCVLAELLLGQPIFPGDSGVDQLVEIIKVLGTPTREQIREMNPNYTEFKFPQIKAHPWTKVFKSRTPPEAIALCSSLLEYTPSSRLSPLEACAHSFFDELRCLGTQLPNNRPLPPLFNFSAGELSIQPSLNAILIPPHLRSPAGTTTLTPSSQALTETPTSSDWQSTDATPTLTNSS
- assayOverview: GSK3alpha assay (same as the GSK3beta assay, GSK3alpha 0.25 ng/μl)
- Format: biochemical
- appliedConditions: −log IC50 (M); given as ranges (>8; 7-8; <7); read-out: pIC50 (GSK3alpha) (converted)
# IC50 annotations

COc1cccc(-n2nnc3cnc(Nc4cccc(NC(C)=O)c4)nc32)c1 = < 1e-08 M
CC(C)CC(=O)NCc1cccc(-n2nnc3cnc(Nc4ccc(CCO)cc4)nc32)c1 = < 1e-08 M
COCc1cccc(Nc2ncc3nnn(-c4ccccc4)c3n2)c1 = < 1e-08 M
CC(=O)NCc1cccc(Nc2ncc3nnn(-c4ccccc4)c3n2)c1 = < 1e-08 M
COCc1cccc(-n2nnc3cnc(Nc4cccc(NC(C)=O)c4)nc32)c1 = < 1e-08 M

Please find the next molecule below.
stdin: Please indicate IC50 recorded for CNC(=O)c1ccc(Nc2ncc3nnn(-c4cccc(COCCOC)c4)c3n2)cc1
stdout: < 1e-08 M

====

# IC50 annotations
- assayTarget: GSK3β (Homo sapiens)
- assayOverview: GSK3beta assay (SPA, biotinylated phosphorylated CREB peptide, ATP-P33)
- Format: biochemical
- appliedConditions: −log IC50 (M); given as ranges (>8; 7-8; <7); read-out: pIC50 (GSK3beta) (converted)

Worked cases, answers included:
COc1cc(Nc2ncc3nnn(-c4cccc(F)c4)c3n2)ccc1C(=O)O = < 1e-08 M
COCc1cccc(-n2nnc3cnc(Nc4cccc(S(C)(=O)=O)c4)nc32)c1 = 1e-08 to 1e-07 M
COCc1cccc(Nc2ncc3nnn(-c4cccc(CC#N)c4)c3n2)c1 = < 1e-08 M
NC(=O)c1ccc(Nc2ncc3nnn(-c4cccc(CCO)c4)c3n2)cc1 = < 1e-08 M

stdin: Please indicate IC50 recorded for C[S+]([O-])c1cccc(Nc2ncc3nnn(-c4cccc(F)c4)c3n2)c1 (centres unmarked)
stdout: < 1e-08 M

stdin: Please indicate IC50 recorded for COCCOCc1cccc(-n2nnc3cnc(Nc4ccc(CCN)cc4)nc32)c1
stdout: 1e-08 to 1e-07 M

stdin: Please indicate IC50 recorded for Cc1cccc(Nc2ncc3nnn(-c4cccc(F)c4)c3n2)c1
stdout: 1e-08 to 1e-07 M

stdin: Please indicate IC50 recorded for COC(=O)c1cccc(Nc2ncc3nnn(-c4cccc(F)c4)c3n2)c1
stdout: 1e-08 to 1e-07 M

stdin: Please indicate IC50 recorded for CC(=O)NCc1cccc(-n2nnc3cnc(Nc4cccc(C#N)c4)nc32)c1
stdout: < 1e-08 M

stdin: Please indicate IC50 recorded for O=C(O)c1ccc(Nc2ncc3nnn(-c4cccc(F)c4)c3n2)cc1Cl
stdout: < 1e-08 M

stdin: Please indicate IC50 recorded for CCOc1cc(Nc2ncc3nnn(-c4cccc(CCO)c4)c3n2)ccc1C(=O)O
stdout: < 1e-08 M

stdin: Please indicate IC50 recorded for NC(=O)CNC(=O)c1cccc(Nc2ncc3nnn(-c4cccc(CC(=O)O)c4)c3n2)c1
stdout: 1e-08 to 1e-07 M

stdin: Please indicate IC50 recorded for CC(=O)NCc1cccc(-n2nnc3cnc(Nc4cccc(CO)c4)nc32)c1
stdout: < 1e-08 M

stdin: Please indicate IC50 recorded for CSc1cccc(Nc2ncc3nnn(-c4cccc(F)c4)c3n2)c1
stdout: < 1e-08 M

====

- assayTarget: GSK3β (Homo sapiens, UniProt P49841)
- assayOverview: GSK3beta assay (SPA, biotinylated phosphorylated CREB peptide, ATP-P33)
- Type: biochemical
- appliedConditions: −log IC50 (M); given as ranges (>8; 7-8; <7); read-out: pIC50 (GSK3beta) (converted)
outcomeMeasure: IC50

Worked cases, answers included:
CC(=O)NCc1cccc(Nc2ncc3nnn(-c4cccc(F)c4)c3n2)c1 = < 1e-08 M
NC(=O)c1cccc(Nc2ncc3nnn(-c4ccccc4)c3n2)c1 = < 1e-08 M
COc1cccc(-n2nnc3cnc(Nc4ccc(C(=O)O)cc4)nc32)c1 = < 1e-08 M
CC(=O)NCc1cccc(-n2nnc3cnc(Nc4ccc(S(N)(=O)=O)cc4)nc32)c1 = < 1e-08 M
Fc1cccc(-n2nnc3cnc(Nc4cccc(OC(F)(F)F)c4)nc32)c1 = < 1e-08 M

stdin: Lab note: record IC50 of NCc1ccc(Nc2ncc3nnn(-c4cccc(CCO)c4)c3n2)cc1 tested on GSK3β (Homo sapiens, UniProt P49841).
stdout: < 1e-08 M

stdin: Lab note: record IC50 of O=C(O)c1ccc(Nc2ncc3nnn(-c4cccc(F)c4)c3n2)cc1O tested on GSK3β (Homo sapiens, UniProt P49841).
stdout: < 1e-08 M

stdin: Lab note: record IC50 of NS(=O)(=O)c1ccc(Nc2ncc3nnn(-c4cccc(CC(=O)O)c4)c3n2)cc1 tested on GSK3β (Homo sapiens, UniProt P49841).
stdout: 1e-08 to 1e-07 M

stdin: Lab note: record IC50 of NS(=O)(=O)c1ccc(Nc2ncc3nnn(-c4cccc(CCO)c4)c3n2)cc1 tested on GSK3β (Homo sapiens, UniProt P49841).
stdout: < 1e-08 M

stdin: Lab note: record IC50 of COCCOc1cccc(-n2nnc3cnc(Nc4ccc(F)cc4)nc32)c1 tested on GSK3β (Homo sapiens, UniProt P49841).
stdout: 1e-08 to 1e-07 M

stdin: Lab note: record IC50 of O=C(O)c1ccc(Nc2ncc3nnn(-c4cccc(CNC(=O)C56CC7CC(CC(C7)C5)C6)c4)c3n2)cc1 tested on GSK3β (Homo sapiens, UniProt P49841).
stdout: 1e-08 to 1e-07 M

stdin: Lab note: record IC50 of N#CCc1ccc(Nc2ncc3nnn(-c4cccc(F)c4)c3n2)cc1 tested on GSK3β (Homo sapiens, UniProt P49841).
stdout: 1e-08 to 1e-07 M

stdin: Lab note: record IC50 of COCc1cccc(-n2nnc3cnc(Nc4ccc(Cl)cc4)nc32)c1 tested on GSK3β (Homo sapiens, UniProt P49841).
stdout: < 1e-08 M

stdin: Lab note: record IC50 of COC(=O)c1cc(Nc2ncc3nnn(-c4cccc(CC#N)c4)c3n2)ccc1NC(C)=O tested on GSK3β (Homo sapiens, UniProt P49841).
stdout: < 1e-08 M

stdin: Lab note: record IC50 of CS(=O)(=O)c1cccc(Nc2ncc3nnn(-c4cccc(F)c4)c3n2)c1 tested on GSK3β (Homo sapiens, UniProt P49841).
stdout: < 1e-08 M
